Target: Human COX-1 (Homo sapiens, UniProt P23219)
Construct: A 2.0 kb fragment containing the coding region of either human or murine COX-1 or human or murine COX-2; made in house; host or cells: SF9 insect cells (recombinant baculovirus, pVL1393); CHAPS-solubilized membranes
Sequence (P23219 24-599): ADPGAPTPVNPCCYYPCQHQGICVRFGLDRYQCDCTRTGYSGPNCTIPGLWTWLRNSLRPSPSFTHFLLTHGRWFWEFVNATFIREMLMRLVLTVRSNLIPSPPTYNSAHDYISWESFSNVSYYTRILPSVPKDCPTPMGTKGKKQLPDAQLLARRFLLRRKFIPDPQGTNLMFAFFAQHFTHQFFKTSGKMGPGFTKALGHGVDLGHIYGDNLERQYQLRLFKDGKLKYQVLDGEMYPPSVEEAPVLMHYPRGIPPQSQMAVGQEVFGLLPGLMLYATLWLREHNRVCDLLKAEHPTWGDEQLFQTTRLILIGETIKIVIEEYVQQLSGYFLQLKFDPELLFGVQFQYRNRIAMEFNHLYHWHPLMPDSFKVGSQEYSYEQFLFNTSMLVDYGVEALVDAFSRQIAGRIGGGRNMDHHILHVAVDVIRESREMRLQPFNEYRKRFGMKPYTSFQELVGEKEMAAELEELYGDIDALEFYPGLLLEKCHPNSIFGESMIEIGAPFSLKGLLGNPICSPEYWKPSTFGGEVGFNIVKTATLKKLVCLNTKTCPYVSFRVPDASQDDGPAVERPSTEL
Assay: Evaluation of COX-1 activity in vitro (recombinant enzyme, PGE2 ELISA)
Assay type: biochemical
Conditions: 10 μM arachidonic acid; 10-20 minutes pre-incubation; pH 8.0
pIC50: −log10 of the molar value.
measurement-type: pIC50

A = N#Cc1nn(-c2ccc(S(N)(=O)=O)cc2)c2c1SCc1cc(F)ccc1-2
B = NS(=O)(=O)c1ccc(-n2nc(C(F)(F)F)c3c2-c2ccccc2OC3)cc1
# input Of A and B , which shows the smaller pIC50 value? Please identify the chosen entry by its label.
# output B
(B: 5.15, A: 6.10)
